- Subject Of Test: BRD4 (BD1+BD2) (Homo sapiens)
- Construct: 1.8 μg/ml recombinant BRD4 (BD1+BD2 domains) protein
- Test Context: read-out: BRD4 Binding Potency
pIC50: −log10 of the molar value. Counter-ions that a name gives are not always drawn.
Listed below: pIC50 values for each entry.
Endpoint Name: pIC50

compound="Cc1sc2c(c1C)C(c1ccc(Cl)cc1)=N[C@@H](CC(=O)N(C)[C@H](C)c1ccc(CN3CCN(Cc4ccc(-n5c(O)nnc5-c5cc(C(C)C)c(O)cc5O)cc4)CC3)cc1)c1nnc(C)n1-2 [Compound 92, trifluoroacetic acid]" subject_of_test="BRD4 (BD1+BD2) (Homo sapiens)" recorded_measurement="< 6.00"
compound="CCc1cc(-c2nnc(O)n2-c2ccc(CN3CCC(C(=O)N4CCC(CNC(=O)C[C@@H]5N=C(c6ccc(Cl)cc6)c6c(sc(C)c6C)-n6c(C)nnc65)C4)CC3)cc2)c(O)cc1O (stereo partly shown) [Compound 77, trifluoroacetic acid]" subject_of_test="BRD4 (BD1+BD2) (Homo sapiens)" recorded_measurement="> 7.00"
compound="CCc1cc(-c2nnc(C(N)=O)n2-c2ccc(CN3CCN(CC4CCN(C(=O)C[C@@H]5N=C(c6ccc(Cl)cc6)c6c(sc(C)c6C)-n6c(C)nnc65)CC4)CC3)cc2)c(O)cc1O [Compound 121, hydrochloride]" subject_of_test="BRD4 (BD1+BD2) (Homo sapiens)" recorded_measurement="< 6.00"
compound="COc1cccc(-c2cc(C(=O)Nc3ccc(-c4ccc(OC5CCN(CC[C@@H]6N=C(c7ccc(Cl)cc7)c7c(sc(C)c7C)-n7c(C)nnc76)CC5)cc4OCCN(C)C)cc3)ccc2OC)c1 [Compound 140]" subject_of_test="BRD4 (BD1+BD2) (Homo sapiens)" recorded_measurement="< 6.00"

====

- Subject Of Test: BRD4 (BD1+BD2) (Homo sapiens)
- Construct: 1.8 μg/ml recombinant BRD4 (BD1+BD2 domains) protein
- Test Context: read-out: BRD4 Binding Potency
Endpoint Name: IC50

compound="Cc1cc(-c2nnc(O)n2-c2ccc(CN3CCN(CC4CCN(C(=O)C[C@@H]5N=C(c6ccc(Cl)cc6)c6c(sc(C)c6C)-n6c(C)nnc65)CC4)CC3)cc2)c(O)cc1O [Compound 9, trifluoroacetic acid]" endpoint_name=IC50 recorded_measurement="< 100 nM"
compound="Cc1sc2c(c1C)C(c1ccc(Cl)cc1)=N[C@@H](CC(=O)NCC(=O)NCCOCCOc1ccc(-n3c(O)nnc3-c3cc(C(C)C)c(O)cc3O)cc1)c1nnc(C)n1-2 [Compound 55]" endpoint_name=IC50 recorded_measurement="100 to 1000 nM"
compound="Cc1sc2c(c1C)C(c1ccc(Cl)cc1)=N[C@H](CC(=O)N1CCC(CN3CCN(Cc4ccc(-n5c(O)nnc5-c5cc(C(C)C)c(O)cc5O)cc4)CC3)CC1)c1nnc(C)n1-2 [Compound 5, trifluoroacetic acid]" endpoint_name=IC50 recorded_measurement="> 1000 nM"
compound="Cc1sc2c(c1C)C(c1ccc(Cl)cc1)=N[C@@H](CC(=O)N[C@H](C)c1cccc(CN3CCC(Cc4ccc(-n5c(C(=O)NCC(F)(F)F)nnc5-c5cc(C(C)C)c(O)cc5O)cc4)CC3)c1)c1nnc(C)n1-2 [Compound 97, trifluoroacetic acid]" endpoint_name=IC50 recorded_measurement="< 100 nM"

====

- Test system: MV4-11 cells
- Assay Text: MV4-11 Cell Cytotoxicity Assay
- Type: cell-based, human
- Test Context: human, MV4-11 cells, CCK-8
Measured IC50 at 72 h, listed per entry for reference.
Endpoint Name: IC50 at 72 h

compound="Cc1sc2c(c1C)C(c1ccc(Cl)cc1)=N[C@@H](CC(=O)N1CCC(Cc3ccc(-n4c(O)nnc4-c4cc(C(C)C)c(O)cc4O)cc3)CC1)c1nnc(C)n1-2 [Compound 3, trifluoroacetic acid]" recorded_measurement="< 100 nM"
compound="Cc1sc2c(c1C)C(c1ccc(Cl)cc1)=N[C@@H](CC(=O)NCC(=O)NCc1ccc(-n3c(O)nnc3-c3cc(C(C)C)c(O)cc3O)cc1)c1nnc(C)n1-2 [Compound 57]" recorded_measurement="100 to 1000 nM"
compound="Cc1sc2c(c1C)C(c1ccc(Cl)cc1)=N[C@@H](CC(=O)NCCOCCN1CCN(Cc3ccc(-n4c(O)nnc4-c4cc(C(C)C)c(O)cc4O)cc3)CC1)c1nnc(C)n1-2 [Compound 49, trifluoroacetic acid, trifluoroacetic …]" recorded_measurement="< 100 nM"
compound="CCn1c(=O)/c(=C2\\Sc3ccccc3N2C)s/c1=C\\c1cccc[n+]1CCCNC(=O)C[C@@H]1N=C(c2ccc(Cl)cc2)c2c(sc(C)c2C)-n2c(C)nnc21 [Compound 7]" recorded_measurement="100 to 1000 nM"
compound="Cc1sc2c(c1C)C(c1ccc(Cl)cc1)=N[C@@H](CC(=O)NCCc1ccc(-n3c(O)nnc3-c3cc(C(C)C)c(O)cc3O)cc1)c1nnc(C)n1-2 [Compound 39]" recorded_measurement="< 100 nM"

====

- System: MV4-11 cells
- Assay Text: MV4-11 Cell Cytotoxicity Assay
- Type: cell-based, human
- Test Context: human, MV4-11 cells, CCK-8
Endpoint Name: IC50 at 72 h

compound=CCNC(=O)c1nnc(-c2cc(C(C)C)c(O)cc2O)n1-c1ccc(CC2CCN(CC3CCN(C(=O)C[C@@H]4N=C(c5ccc(Cl)cc5)c5c(sc(C)c5C)-n5c(C)nnc54)CC3)CC2)cc1 subject_of_test="MV4-11 cells" recorded_measurement="< 100 nM"
compound="Cc1sc2c(c1C)C(c1ccc(Cl)cc1)=N[C@@H](CC(=O)N1CCC(CN3CCN(Cc4ccc(-n5c(O)nnc5-c5cc(C(C)C)c(O)cc5O)cc4)CC3)CC1)c1nnc(C)n1-2 [Compound 103, acetate]" subject_of_test="MV4-11 cells" recorded_measurement="< 100 nM"
compound=Cc1sc2c(c1C)C(c1ccc(Cl)cc1)=N[C@@H](CC(=O)NCc1ccc(CN3CCC(Cc4ccc(-n5c(O)nnc5-c5cc(C(C)C)c(O)cc5O)cc4)CC3)cc1)c1nnc(C)n1-2 subject_of_test="MV4-11 cells" recorded_measurement="< 100 nM"

====

- Tested on: MV4-11 cells
- Assay Text: MV4-11 Cell Cytotoxicity Assay
- Assay type: cell-based, human
- Test Context: human, MV4-11 cells, CCK-8
Where a name gives a salt, the structure may show the parent alone.
Quick reference: IC50 at 72 h of the listed items.
Endpoint Name: IC50 at 72 h

molecule=CCCc1cc(-c2nnc(C(=O)NCCN3CCCCC3)n2-c2ccc(CN3CCN(CC4CCN(C(=O)C[C@@H]5N=C(c6ccc(Cl)cc6)c6c(sc(C)c6C)-n6c(C)nnc65)CC4)CC3)cc2)c(O)cc1O recorded_measurement="< 100 nM"
molecule=CCN(CC)CCNC(=O)c1nnc(-c2cc(C(C)C)c(O)cc2O)n1-c1ccc(CN2CCN(CC3CCN(C(=O)C[C@@H]4N=C(c5ccc(Cl)cc5)c5c(sc(C)c5C)-n5c(C)nnc54)CC3)CC2)cc1 recorded_measurement="< 100 nM"
molecule=CCc1cc(-c2nnc(O)n2-c2ccc(CNC(=O)C[C@@H]3N=C(c4ccc(Cl)cc4)c4c(sc(C)c4C)-n4c(C)nnc43)cc2)c(O)cc1O recorded_measurement="100 to 1000 nM"
molecule="Cc1sc2c(c1C)C(c1ccc(Cl)cc1)=N[C@H](CC(=O)N1CCC(CN3CCN(Cc4ccc(-n5c(O)nnc5-c5cc(C(C)C)c(O)cc5O)cc4)CC3)CC1)c1nnc(C)n1-2 [Compound 125, hydrochloride]" recorded_measurement="< 100 nM"
molecule=Cc1nn(-c2ccc(C(N)=O)c(NCCOCCN3CCN(C(=O)C[C@@H]4N=C(c5ccc(Cl)cc5)c5c(sc(C)c5C)-n5c(C)nnc54)CC3)c2)c2c1C(=O)CC(C)(C)C2 recorded_measurement="100 to 1000 nM"

====

- Subject Of Test: BRD4 (BD1+BD2) (Homo sapiens)
- Construct: 1.8 μg/ml recombinant BRD4 (BD1+BD2 domains) protein
- Test Context: read-out: BRD4 Binding Potency
Counter-ions that a name gives are not always drawn.
Endpoint Name: IC50

compound="Cc1sc2c(c1C)C(c1ccc(Cl)cc1)=N[C@@H](CC(=O)NC(C)c1ccc(CN3CCC(Cc4ccc(-n5c(O)nnc5-c5cc(C(C)C)c(O)cc5O)cc4)CC3)cc1)c1nnc(C)n1-2 (stereo in doubt) [Compound 82, hydrochloride]" endpoint_name=IC50 recorded_measurement="< 100 nM"
compound=Cc1sc2c(c1C)C(c1ccc(Cl)cc1)=N[C@@H](CC(=O)N1CCC(CN3CCN(Cc4ccc(-n5c(C(=O)NCCN6CCCCC6)nnc5-c5cc(C(C)C)c(O)cc5O)cc4)CC3)CC1)c1nnc(C)n1-2 endpoint_name=IC50 recorded_measurement="< 100 nM"
compound="Cc1sc2c(c1C)C(c1ccc(Cl)cc1)=N[C@@H](CC(=O)N1CCC(CN3CCN(Cc4ccc(-n5c(O)nnc5-c5cc(C(C)C)c(O)cc5O)cc4)CC3)CC1)c1nnc(C)n1-2 [Compound 103, acetate]" endpoint_name=IC50 recorded_measurement="100 to 1000 nM"
compound=Cc1sc2c(c1C)C(c1ccc(Cl)cc1)=N[C@@H](CC(=O)N1CCN(c3ccc(-n4c(O)nnc4-c4cc(C(C)C)c(O)cc4O)cc3)CC1)c1nnc(C)n1-2 endpoint_name=IC50 recorded_measurement="100 to 1000 nM"
